- Tested on: Puccinia recondite f sp. tritici
- assay comment: Test B: wheat leaf rust, test suspension sprayed on wheat seedlings, disease rating;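 further: 200 ppm unless marked * meaning 40 ppm or ** meaning 10 ppm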
- Format: in vivo
- stated conditions: 200 ppm test suspension
Mark criterion met only for Test B disease control rating values smaller than 90%; exact matches and larger values are criterion not met.

Observe how each entry below is paired with its result.
NCCNc1nccc(-c2c(-c3ccc(F)cc3)nn3c2CCCC3)n1 [compound 16]    criterion not met
C=CCNc1nccc(-c2c(-c3ccc(F)cc3)nn3c2CCCC3)n1 [compound 15]    criterion not met
CC1CN1c1nccc(-c2c(-c3ccc(F)cc3)nn3c2CCCC3)n1 (stereo not drawn) [compound 81]    criterion not met

Q: Determine if Nc1nccc(-c2c(-c3ccc(F)cc3)nn3c2CCCC3)n1 [compound 10] shows Test B disease control rating strictly lower than 90%.
A: criterion not met

Q: Determine if OCCCNc1nccc(-c2c(-c3ccc(F)cc3)nn3c2CCCC3)n1 [compound 37] shows Test B disease control rating strictly lower than 90%.
A: criterion met

Q: Determine if Cc1cccc(-c2nn3c(c2-c2ccnc(NC4CC4)n2)CCCC3)c1 [compound 181] shows Test B disease control rating strictly lower than 90%.
A: criterion not met

* * *

- Tested on: Puccinia recondite f sp. tritici
- assay comment: Test B: wheat leaf rust, test suspension sprayed on wheat seedlings, disease rating;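 further: 200 ppm unless marked * meaning 40 ppm or ** meaning 10 ppm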
- Format: in vivo
- stated conditions: 40 ppm test suspension (*)
Marks after values point to notes of the source that are not given here.
readout label: Test B disease control rating

Sample answers from the record:
COCC(C)Nc1nccc(-c2c(-c3ccc(F)c(C)c3)nn3c2CCCC3)n1 (centres unmarked) [compound 62]    80* %
CC(C)Nc1nccc(-c2c(-c3ccc(F)cc3)nn3c2CNCC3)n1.Cl [Compound 133]    19* %
Cc1cc(-c2nn3c(c2-c2ccnc(NC[Si](C)(C)C)n2)CCCC3)ccc1F [compound 50]    0* %
CC(C)Nc1nccc(-c2c(-c3ccc(F)cc3)nn3c2COCC3)n1.Cl [compound 128]    96* %

// next entry
Q: What value of Test B disease control rating has been recorded for this entry: Cc1cc(-c2nn3c(c2-c2ccnc(NC4CC4)n2)CCCC3)ccc1F [compound 56]
A: 0* %

* * *

Recorded measurements of Test J disease control rating, one per entry
- Tested on: Phytophthora infestans
- assay comment: whole plant or invertebrate
- Format: in vivo
- stated conditions: 200 ppm test suspension
Give the value in % but do not write % after it.

CC(C)(C)CNc1nccc(-c2c(-c3ccc(F)cc3)nn3c2CCCC3)n1    0
COCC(C)Nc1nccc(-c2c(-c3cccc(F)c3)nn3c2CCC3)n1 (stereo not drawn)    98
COc1ccc(-c2nn3c(c2-c2ccnc(NC4CC4)n2)CCC3)cc1    95
COCC(C)Nc1nccc(-c2c(-c3ccc(F)cc3F)nn3c2CCC3)n1 (stereo not drawn)    100
CCCC(C)Nc1nccc(-c2c(-c3ccc(F)cc3)nn3c2CCCC3)n1 (stereo not drawn)    0

Q: What value of Test J disease control rating has been recorded for this entry: CC(CO)Nc1nccc(-c2c(-c3ccc(F)cc3F)nn3c2COCC3)n1 (stereo not drawn)
A: 100

Q: What value of Test J disease control rating has been recorded for this entry: `CC(C)Nc1nccc(-c2c(-c3ccc(F)cc3)nn3c2CSCC3)n1`
A: 99

Q: What value of Test J disease control rating has been recorded for this entry: `C[C@H](CO)Nc1nccc(-c2c(-c3ccc(F)cc3)nn3c2CCCC3)n1`
A: 99

Q: What value of Test J disease control rating has been recorded for this entry: `Fc1ccc(-c2nn3c(c2-c2ccnc(NC4CCOCC4)n2)CCCC3)cc1`
A: 100

* * *

Recorded measurements of pest or weed control at 200 ppm, one per entry
- Test system: Phytophthora infestans
- assay comment: whole plant or invertebrate
- Type: in vivo
- stated conditions: Phytophthora infestans, in Solanum lycopersicum, 120 h, read-out: Test J disease control rating
Your answer should be a number followed by the unit of measure.

Sample answers from the record:
CC(C)Nc1nccc(-c2c(-c3ccc(F)cc3)nn3c2CCOC3)n1    99%
CC(C)Nc1nccc(-c2c(-c3ccc(F)cc3)nn3c2COCC3)n1    100%
c1ccc(-c2nn3c(c2-c2ccnc(NC4CC4)n2)CCCC3)cc1    97%
CC(CO)Nc1nccc(-c2c(-c3ccc(F)cc3)nn3c2COCC3)n1 (stereo not drawn)    77%
Fc1ccc(-c2nn3c(c2-c2ccnc(NC4CC4)n2)COCC3)cc1    99%
Fc1ccc(-c2nn3c(c2-c2ccnc(NC4CC4)n2)CCCN3)cc1    97%

Q: What value of pest or weed control at 200 ppm has been recorded for this entry: `Fc1ccc(-c2nn3c(c2-c2ccnc(NC4CCC4)n2)CCCC3)cc1`
A: 93%

Q: What value of pest or weed control at 200 ppm has been recorded for this entry: `c1ccc(-c2nn3c(c2-c2ccnc(NC4CC4)n2)COCC3)cc1`
A: 95%

Q: What value of pest or weed control at 200 ppm has been recorded for this entry: `CC(C)Nc1nccc(-c2c(-c3ccc(F)cc3)nn3c2CCCC3)n1`
A: 100%

* * *

Recorded measurements of Test A disease control rating, one per entry
- Test system: Erysiphe graminis f. sp. tritici
- assay comment: Test A: wheat powdery mildew, test suspension sprayed on wheat seedlings, disease rating
- Type: in vivo
- stated conditions: 40 ppm test suspension (*)
Marks after values point to notes of the source that are not given here.

Sample answers from the record:
Cc1cc(-c2nn3c(c2-c2ccnc(NC(C)CO)n2)CCCC3)ccc1F (stereo not drawn)    0* %
Cc1cc(-c2nn3c(c2-c2ccnc(NC(C)C)n2)CCCC3)ccc1F    0* %

Q: What value of Test A disease control rating has been recorded for this entry: `C[C@H](CO)Nc1nccc(-c2c(-c3ccc(F)cc3)nn3c2CCCC3)n1`
A: 0* %

* * *

- Test system: Phytophthora infestans
- assay comment: whole plant or invertebrate
- Assay type: in vivo
- stated conditions: Phytophthora infestans, in Solanum lycopersicum, 120 h, read-out: Test J disease control rating
Recorded measurements of pest or weed control at 200 ppm, one per entry
Give the value in % but do not write % after it.

Sample answers from the record:
CC(C)Nc1nccc(-c2c(-c3ccccc3)nn3c2COCC3)n1    95
CC(C)Nc1nccc(-c2c(-c3ccc(F)cc3)nn3c2CS(=O)(=O)CC3)n1    100
COCC(C)Nc1nccc(-c2c(-c3ccc(F)cc3F)nn3c2CSC3)n1 (centres unmarked)    93
CC(C)Nc1nccc(-c2c(-c3ccccc3)nn3c2CCCC3)n1    91

Q: Record `c1cc(-c2c(-c3ccsc3)nn3c2COCC3)nc(NC2CC2)n1` : what is its pest or weed control at 200 ppm with Phytophthora infestans?
A: 97

* * *

- Test system: Puccinia recondite f sp. tritici
- assay comment: Test B: wheat leaf rust, test suspension sprayed on wheat seedlings, disease rating;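 further: 200 ppm unless marked * meaning 40 ppm or ** meaning 10 ppm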
- Assay type: in vivo
- stated conditions: 200 ppm test suspension
readout label: Test B disease control rating (%)
Give the value in % but do not write % after it.

Sample answers from the record:
Cc1cc(-c2nn3c(c2-c2ccnc(NC4CC4)n2)COCC3)ccc1F [compound 119]    76
C#CCNc1nccc(-c2c(-c3ccc(F)cc3)nn3c2CCCC3)n1 [compound 17]    99
CCC(C)CNc1nccc(-c2c(-c3ccc(F)cc3)nn3c2CCCC3)n1 (centres unmarked) [compound 6]    73
CCC(C)Nc1nccc(-c2c(-c3ccc(F)cc3)nn3c2CCCC3)n1 (centres unmarked) [compound 20]    99

Q: What value of Test B disease control rating has been recorded for this entry: CC(C)Nc1nccc(-c2c(-c3ccc(F)cc3)nn3c2CSCC3)n1 [compound 110]
A: 95

* * *

- System: Pythium aphanidermatum
- assay comment: Test L: bluegrass pythium blight, test suspension sprayed on bluegrass seedlings, disease rating;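 further: 200 ppm unless marked * meaning 40 ppm or ** meaning 10 ppm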
- Format: in vivo
- stated conditions: 40 ppm test suspension (*)
Marks after values point to notes of the source that are not given here.
readout label: Test L disease control rating

Sample answers from the record:
CC(CO)Nc1nccc(-c2c(-c3ccc(F)cc3)nn3c2CCCC3)n1.Cl (stereo not drawn)    100* %
Fc1ccc(-c2nn3c(c2-c2ccnc(NCC4CCOCC4)n2)CCCC3)cc1    0* %
C#CCNc1nccc(-c2c(-c3ccc(F)cc3)nn3c2CCCC3)n1    62* %
Fc1ccc(-c2nn3c(c2-c2ccnc(NOCC4CCC4)n2)CCCC3)cc1    0* %
CC(=O)N1CCCc2c(-c3ccnc(NC4CCOCC4)n3)c(-c3ccc(F)cc3)nn21    100* %

Q: What value of Test L disease control rating has been recorded for this entry: `Cc1cc(-c2nn3c(c2-c2ccnc(NC(C)C)n2)CCCC3)ccc1F`
A: 97* %

Q: What value of Test L disease control rating has been recorded for this entry: Cc1cc(-c2nn3c(c2-c2ccnc(NC(C)CO)n2)CCCC3)ccc1F (stereo not drawn)
A: 99* %

Q: What value of Test L disease control rating has been recorded for this entry: `Fc1ccc(-c2nn3c(c2-c2ccnc(NCc4ccco4)n2)CCCC3)cc1`
A: 0* %

Q: What value of Test L disease control rating has been recorded for this entry: COCC(C)Nc1nccc(-c2c(-c3ccc(F)c(C)c3)nn3c2CCCC3)n1 (stereo not drawn)
A: 99* %
